Tested on: MEK4;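 also: KINOMEscan kinase panel screen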
Construct: gene MAP2K4
stated conditions: concentration: 1 μM, replicates: in singlicate; n = 1
# note: exactly 20% is not below, so it is 0.0; use 1.0 for %Inh strictly under it

molecule="CS(=O)(=O)CCNCc1nc(-c2ccc3ncnc(Nc4ccc5c(cnn5Cc5ccccc5)c4)c3c2)cs1.Cl.Cl [GW569716]" assayed_target=MEK4 label_value=1.0
molecule="O=C(Nc1n[nH]c2nc(-c3cccs3)c(Br)cc12)C1CC1 [SB-735297]" assayed_target=MEK4 label_value=0.0
molecule="COC(=O)C(NC(=O)NC1CCN(c2ccnc(Nc3ccc(F)cc3)n2)C1)c1ccccc1 (stereo not shown) [GSK1379712]" assayed_target=MEK4 label_value=1.0
molecule="CC(C)c1ccc(O)cc1Nc1ccnc2ccc(C(F)(F)F)cc12 [GW482059]" assayed_target=MEK4 label_value=0.0
molecule="Cc1nccc(-c2c(-c3ccc(F)cc3)ncn2CCCN2CCOCC2)n1.Cl [SB-282975]" assayed_target=MEK4 label_value=1.0
molecule=COc1ccc(CSc2nnc(-c3ccc4c(c3)CCO4)o2)cc1 assayed_target=MEK4 label_value=1.0
molecule="CC(=O)c1cccc(NC(=O)NC2CCN(c3ccnc(Nc4ccc(F)cc4)n3)C2)c1 (stereo not shown) [GSK1379710]" assayed_target=MEK4 label_value=0.0
